Values from patent US20240010639A1

# EXPERIMENT: Pharmacokinetic evaluation in cynomolgus monkeys
# Format: in vivo
# CONDITION DESCRIPTION: both (Example 16), male (MYK-461), cynomolgus monkey, plasma, po, intragastric administration, 2 mg/kg, read-out: Apparent volume of distribution Vz/F
MEASURED PROPERTY: Vd/F (L/kg)

Cc1ccc(F)c([C@H](C)Nc2nc(=O)n(C3CCOCC3)c(=O)[nH]2)c1 ... 10.3
CC(C)n1c(=O)cc(N[C@@H](C)c2ccccc2)[nH]c1=O [MYK-461, reference compound] ... 11.4

###

# EXPERIMENT: Toxicokinetic evaluation of 14-day repeated intragastric administration to SD rats
# Assay type: in vivo
# CONDITION DESCRIPTION: both sexes, SD, rat, plasma, po, 1.5 mg/kg, repeated intragastric 1.5 mg/kg, Day 1, read-out: Clearance CL/F
# Protocol: With SD rats as test animals, the plasma concentrations of the test compounds and the concentrations of the original forms of the compounds in the administration solutions were measured by LC/MS/MS at different time points after intragastric administration. The toxicokinetic performance of the compound disclosed herein was studied in SD rats and its toxicokinetic profile was evaluated. […]
MEASURED PROPERTY: CL/F at 1 day (mL/min/kg)
Value expressed in mL/min/kg; do not type the unit.

Input: Dear colleague, I am looking for the recorded CL/F at 1 day of the following compound: CC(C)n1c(=O)cc(N[C@@H](C)c2ccccc2)[nH]c1=O [MYK-461, reference compound]
Output: 6.39
